These entries and their values trace back to paper PMC6843832.

IC50 values by entry
Tested on: A549 cells
TEST: MTT assay, A549 cells
Assay type: cell-based
DETAILS: human non-small cell lung cancer cells, 72 h, read-out: Cytotoxic activity (IC50) A549
Please append the unit to your numeric answer.

MOLECULE | ENDPOINT VALUE
O=c1c2c3c(sc2nc(-c2ccc(Cl)cc2)n1CCc1ccc(O)cc1)CCCCC3 [Compound 19] | 6.26 µM
Cc1ccc(-c2nc3sc4c(c3c(=O)n2CCc2ccc(O)cc2)CCCC4)cc1 [Compound 10] | 8.51 µM

Report IC50 from A549 cells testing of O=c1c2c3c(sc2nc(-c2ccc(F)cc2)n1CCc1ccc(O)cc1)CCCC3 [Compound 7]
6.86 µM
